Recorded Kd for the following binders
Target: T1, CMG2-GST-biotin (human CMG2 vWA domain 40-217, [change], [change], GST fusion, biotin-labelled) (human, UniProt P58335 40-217)
T1 chain: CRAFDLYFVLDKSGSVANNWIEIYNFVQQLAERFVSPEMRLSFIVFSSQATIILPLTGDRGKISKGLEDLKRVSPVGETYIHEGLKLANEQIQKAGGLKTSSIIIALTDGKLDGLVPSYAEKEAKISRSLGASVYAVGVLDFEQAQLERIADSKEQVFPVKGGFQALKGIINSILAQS
Test: BLI
Numeric only. Scale: µM

PAIAIAVHSQDVSIP [Peptide S16 (canstatin-derived 15-mer)]; 0.4

Continue with the binder presented below.
Quick note, Kd for VSIGYLLVKHSQTDQ [Peptide U12 (canstatin-derived 15-mer)] landed at 80
